Test system: COLO 205 colon
EXPERIMENT_SUMMARY: NCI-60 one-dose screen, 48 h (100 = growth as untreated, 0 = no growth, -100 = all killed)
EXPERIMENTAL_CONTEXT: 10 µM unless noted
The panel holds about 83,000 compounds, 20% with a hit somewhere; the sample as a whole holds those more often.
MEASURE_NAME: growth (%)
Quick note: give the figure in %, leave out the unit.

Check out these entries, answers already filled in.
COMPOUND: O=C(Nc1ccc(Br)cc1)C1=NCCCCN1
UNITS_LABEL: %
VALUE: 110
--
COMPOUND: C=C(C)[C@@H]1CC[C@]2(C(=O)N3CCN(C)CC3)CC[C@]3(C)[C@H](CC[C@@H]4[C@@]5(C)CC[C@H](OC(=O)c6ccccc6C(=O)O)C(C)(C)[C@@H]5CC[C@]43C)[C@@H]12
UNITS_LABEL: %
VALUE: 111
--
COMPOUND: C=CCN1C(=O)c2cccc3c(N4CCOCC4)ccc(c23)C1=O
UNITS_LABEL: %
VALUE: -21.8

Record for S=C(c1ccc2c(c1)OCO2)N1CCN(c2cccc(Cl)c2)CC1 under target or system COLO 205 colon: growth reported as 25.4

Record for c1ccc2c(c1)CCCc1nnc3nc4ccccc4n3c1-2 under target or system COLO 205 colon: growth reported as 12

Record for CCN1CCN(c2cc(C)nc(N(CCNc3ccnc4cc(Cl)ccc34)Cc3ccc4c(c3)OCO4)n2)CC1 under target or system COLO 205 colon: growth reported as -89.5

Record for CC1=CC(c2ccco2)=C2C(N)=NNC2N1 (stereo not given) under target or system COLO 205 colon: growth reported as 116

Record for Cc1ccc(-c2nc(N3CCNCC3)c3oc(-c4ccc(C)cc4)nc3n2)cc1 under target or system COLO 205 colon: growth reported as -81.2

Record for Cc1ccc(S(=O)(=O)OCCCOS(=O)(=O)c2ccc(C)cc2)cc1 under target or system COLO 205 colon: growth reported as 110

Record for COC(=O)c1nc(-c2ccccc2)oc1S(=O)(=O)NCC(c1ccc(Cl)cc1)N1CCOCC1 (stereo not given) under target or system COLO 205 colon: growth reported as 78.1

---

System: NCI-H522 lung
EXPERIMENT_SUMMARY: NCI-60 one-dose screen, 48 h (100 = growth as untreated, 0 = no growth, -100 = all killed)
EXPERIMENTAL_CONTEXT: 10 µM unless noted
About 83,000 compounds went through this panel and 20% of them were active in at least one assay; those are over-represented in the sample as a whole. The source made the active and inactive calls. Rule for the calls: active = growth percent below 10; inactive = the rest.
# maps each entry to its growth

COMPOUND: Cc1ccc2nc(/C(C#N)=C(/CCCO)NC(Cc3ccccc3)C(=O)OCc3ccccc3)[nH]c(=O)c2c1 (centres undefined)
ASSAYED_SYSTEM: NCI-H522 lung
VALUE: 112% (inactive)

COMPOUND: CCN(CC)CCCOc1ccc2ncnc(Nc3ccc(Oc4cccc(C(F)(F)F)c4)c(Cl)c3)c2c1
ASSAYED_SYSTEM: NCI-H522 lung
VALUE: -2.46% (active)

COMPOUND: COC1=C(C)C(=O)N2[C@@H]1[C@H](c1ccccc1)OC21C=CC(=O)C=C1
ASSAYED_SYSTEM: NCI-H522 lung
VALUE: -69.3% (active)

COMPOUND: Cc1c(CC(=S)N2CCOCC2)nnn1-c1cccc(C(F)(F)F)c1
ASSAYED_SYSTEM: NCI-H522 lung
VALUE: 89.6% (inactive)

COMPOUND: Clc1c(Cl)[n+](Cc2ccc3ccccc3c2)cn1Cc1ccc2ccccc2c1
ASSAYED_SYSTEM: NCI-H522 lung
VALUE: -52.5% (active)

COMPOUND: CC(=O)OC[C@]12CC[C@@H]([C@@H](C)c3nnc(-c4ccncc4)o3)[C@@H]1[C@H]1CC[C@@H]3[C@@]4(C)CC[C@H](OC(C)=O)C(C)(C)[C@@H]4CC[C@@]3(C)[C@]1(C)CC2
ASSAYED_SYSTEM: NCI-H522 lung
VALUE: 76.2% (inactive)

COMPOUND: CCN(CC)CCN1C(=O)c2c(c(C)c3c(oc4ccc(O)cc43)c2C)C1=O
ASSAYED_SYSTEM: NCI-H522 lung
VALUE: 68.2% (inactive)

COMPOUND: CCOC(=O)C#Cc1c(C(=O)OCC)nnn1Cc1ccc(C(F)(F)F)cc1
ASSAYED_SYSTEM: NCI-H522 lung
VALUE: -15.1% (active)

From here, focus on the item given below.
Record for CCCCNC(=O)c1cc([N+](=O)[O-])cc(C2CCCCC2)c1O under target or system NCI-H522 lung: growth reported as 25.4% (inactive)

This collection of values is drawn from PubChem BioAssay (NCI).
